Target: Cytochrome P450 2D6 (Homo sapiens, UniProt P10635)
Sequence (P10635 whole entry): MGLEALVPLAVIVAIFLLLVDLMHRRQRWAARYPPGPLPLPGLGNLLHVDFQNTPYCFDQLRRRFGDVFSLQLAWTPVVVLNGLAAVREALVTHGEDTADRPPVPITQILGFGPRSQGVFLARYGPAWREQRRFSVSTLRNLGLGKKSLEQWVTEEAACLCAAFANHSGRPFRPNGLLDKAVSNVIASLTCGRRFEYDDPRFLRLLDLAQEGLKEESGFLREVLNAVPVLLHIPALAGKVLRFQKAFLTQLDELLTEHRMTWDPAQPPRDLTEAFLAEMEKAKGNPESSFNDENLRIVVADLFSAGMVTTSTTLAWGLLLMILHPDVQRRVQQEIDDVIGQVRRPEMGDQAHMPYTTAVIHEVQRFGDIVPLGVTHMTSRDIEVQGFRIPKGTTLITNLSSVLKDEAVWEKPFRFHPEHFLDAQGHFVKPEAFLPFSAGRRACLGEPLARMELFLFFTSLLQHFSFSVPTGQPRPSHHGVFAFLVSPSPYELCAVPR
Assay: Inhibition of CYP2D6
Type: ADME
reported.endpoint: INH

Check out these entries, answers already filled in.
[[record]]
smiles_repr = "FC(F)(F)c1ccc(Nc2nc(-c3ccccn3)cs2)cc1"
reported_endpoint = "INH"
experimental_result = "< 0.1 µM"

[[record]]
smiles_repr = "O=C1O[C@]2(CC[C@H](CNc3ccn(-c4ccccc4F)n3)CC2)CN1c1ccccn1"
reported_endpoint = "INH"
experimental_result = "> 10 µM"


Name the recorded INH for `Cc1ncccc1N1C[C@]2(CC[C@@H](CNc3cnn(-c4ccccc4F)c3)CC2)OC1=O` .
> 10 µM

Can you check `O=C1O[C@]2(CC[C@H](CNc3ccc(-c4ncccc4F)cn3)CC2)CN1c1cccnn1` next?
> 10 µM

Can you check `O=C1O[C@]2(CC[C@H](CNc3ncc(-c4ccccc4F)cn3)CC2)CN1c1ccccn1` next?
> 10 µM

Can you check `O=C(Nc1nc(-c2ccccn2)cs1)N1CCC2(CC1)CN(c1ccccc1)C(=O)O2` next?
> 10 µM

Can you check `O=C1O[C@]2(CC[C@H](CNc3ccc(-c4ncccn4)cn3)CC2)CN1c1cccnn1` next?
> 10 µM

Can you check `Cc1ccccc1-c1ccc(NC[C@H]2CC[C@]3(CC2)CN(c2cccnn2)C(=O)O3)nn1` next?
> 10 µM

====

Molecular target: Cytochrome P450 2C9 (Homo sapiens)
Sequence (P11712 whole entry): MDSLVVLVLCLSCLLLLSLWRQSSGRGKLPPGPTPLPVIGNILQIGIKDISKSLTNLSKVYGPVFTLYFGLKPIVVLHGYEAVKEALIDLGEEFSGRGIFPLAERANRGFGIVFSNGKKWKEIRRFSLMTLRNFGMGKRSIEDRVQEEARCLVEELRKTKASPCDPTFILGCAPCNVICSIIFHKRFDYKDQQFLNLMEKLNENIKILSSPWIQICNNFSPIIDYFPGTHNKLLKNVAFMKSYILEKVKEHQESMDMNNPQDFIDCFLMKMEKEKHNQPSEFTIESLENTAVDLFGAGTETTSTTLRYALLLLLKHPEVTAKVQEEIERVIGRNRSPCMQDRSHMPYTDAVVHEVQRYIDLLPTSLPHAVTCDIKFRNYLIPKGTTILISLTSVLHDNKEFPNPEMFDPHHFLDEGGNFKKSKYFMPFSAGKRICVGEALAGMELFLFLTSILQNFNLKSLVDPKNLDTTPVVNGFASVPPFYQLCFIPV
Experiment: Inhibition of CYP2C9
Type: ADME
Classification field: enter Met for INH values not below 2 µM, Not met for values below it.

[[record]]
smiles_repr = "Cc1ccccc1-c1ccc(NC[C@H]2CC[C@]3(CC2)CN(c2cccnn2)C(=O)O3)nn1"
target_or_system = "Cytochrome P450 2C9 (Homo sapiens)"
label = "Met"

[[record]]
smiles_repr = "O=C1O[C@]2(CC[C@H](CNc3cnc(-c4ccccc4F)cn3)CC2)CN1c1ccccn1"
target_or_system = "Cytochrome P450 2C9 (Homo sapiens)"
label = "Not met"

[[record]]
smiles_repr = "O=C1O[C@]2(CC[C@H](CNc3ccc(-c4ccccc4F)nc3)CC2)CN1c1ccccn1"
target_or_system = "Cytochrome P450 2C9 (Homo sapiens)"
label = "Not met"


// inclusive: INH at least 2 µM? input: `Cc1nnc(N2C[C@]3(CC[C@@H](CNc4cnn(-c5ccccc5F)c4)CC3)OC2=O)s1`
Met

Can you check `O=C1O[C@]2(CC[C@H](CNc3nc(-c4ccccn4)cs3)CC2)CN1c1ccccn1` next?
Met

Can you check `O=C1O[C@]2(CC[C@H](CNc3cnn(-c4ccccc4F)c3)CC2)CN1c1cccnc1F` next?
Met

Can you check `O=C1O[C@]2(CC[C@H](CNc3cnn(-c4ccccc4F)c3)CC2)CN1c1cnccn1` next?
Met

====

Molecular target: Neuropeptide Y receptor type 5 (Homo sapiens, UniProt Q15761)
Sequence (Q15761 whole entry): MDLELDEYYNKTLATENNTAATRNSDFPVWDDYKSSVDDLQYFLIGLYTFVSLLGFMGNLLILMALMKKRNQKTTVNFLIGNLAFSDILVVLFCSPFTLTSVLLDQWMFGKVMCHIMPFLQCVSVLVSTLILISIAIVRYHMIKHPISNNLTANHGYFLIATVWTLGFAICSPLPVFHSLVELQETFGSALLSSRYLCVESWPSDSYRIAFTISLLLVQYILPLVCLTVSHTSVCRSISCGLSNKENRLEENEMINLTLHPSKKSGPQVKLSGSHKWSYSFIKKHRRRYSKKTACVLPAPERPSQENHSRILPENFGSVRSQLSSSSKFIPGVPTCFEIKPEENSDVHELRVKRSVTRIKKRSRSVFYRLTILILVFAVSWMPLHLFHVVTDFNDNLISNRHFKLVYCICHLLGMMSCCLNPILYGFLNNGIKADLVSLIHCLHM
Assay: Antagonist activity at human NPY Y5 receptor
Format: functional
reported.endpoint: Ki
Include the unit after the number when you answer.

Check out these entries, answers already filled in.
[[record]]
smiles_repr = "O=C1O[C@]2(CC[C@H](CNc3ccc(-c4cc(F)cc(F)c4)nn3)CC2)CN1c1cccnn1"
experimental_result = "0.1 nM"

[[record]]
smiles_repr = "O=C1O[C@]2(CC[C@H](CNc3cnc(-c4ccccc4F)cn3)CC2)CN1c1ccccn1"
experimental_result = "0.0251 nM"

[[record]]
smiles_repr = "Cc1nnc(N2C[C@]3(CC[C@@H](CNc4cnn(-c5ccccc5F)c4)CC3)OC2=O)s1"
experimental_result = "0.2 nM"


Name the recorded Ki for `Cc1ncccc1N1C[C@]2(CC[C@@H](CNc3cnn(-c4ccccc4F)c3)CC2)OC1=O` .
0.631 nM

Can you check `O=C1O[C@]2(CC[C@H](CNc3ccc(-c4ccccc4F)nn3)CC2)CN1c1ccccn1` next?
0.0631 nM

Can you check `O=C1O[C@]2(CC[C@H](CNc3ccc(-c4nccs4)cn3)CC2)CN1c1ccccn1` next?
0.126 nM

Can you check `O=C1O[C@]2(CC[C@H](CNc3cnn(-c4ccccc4F)c3)CC2)CN1c1cccnn1` next?
0.1 nM

Can you check `Cc1ccccc1-c1ccc(NC[C@H]2CC[C@]3(CC2)CN(c2cccnn2)C(=O)O3)nn1` next?
0.0631 nM

Origin of measurements: ChEMBL document CHEMBL1255172
